Attribution: patent US11214803B2

# assay name: Tolerability in Sprague-Dawley rats, body and organ weights (Example 22)
# Assay type: in vivo
# experimental setup: male Sprague-Dawley rats, 50 mg/kg s.c. weekly for 6 weeks (7 doses), end of study
readout kind: Kidney weight (g)
Give your result in g as a bare value.

// worked examples, Kidney weight included
| substance | unit | recorded number |
| --- | --- | --- |
| 1198728 (TATTAGAGTATGTGGC; modified gapmer, further chemistry not given here) [compound 1198728] | g | 2.9 |
| 1198605 (GTAATATTGCAATCTG; modified gapmer, further chemistry not given here) [compound 1198605] | g | 3.6 |

Next up:
Challenge: Entry 1198831 (CACTTTTACATTAGGA; chemically modified gapmer, further chemistry not given here) [compound 1198831] has what Kidney weight?
Response given: 3.3
